test protocol: Pharmacokinetics in male Han Wistar rats, intravenous and oral
Assay type: in vivo
applied conditions: male, Han Wistar, plasma; rat, PO, 2.0 mg/kg
readout type: AUC(0-inf) (ng·h/mL)

{"columns": ["item smiles", "measurement units", "numeric value"],
 "data": [
  ["O=C(O)c1ccc(C2(NC(=O)c3cc(Cl)cnc3N3CC(Oc4cccc(F)c4)C3)CC2)cc1", "ng·h/mL", 3000],
  ["O=C(O)c1ccc(C2(NC(=O)c3cc(Cl)cnc3N3CC(Oc4ccccc4)C3)CC2)cc1", "ng·h/mL", 1820]
]}

---

test protocol: Pharmacokinetics in male Han Wistar rats, intravenous and oral
Format: in vivo
applied conditions: male, Han Wistar, plasma; rat, IV, 2.0 mg/kg; read-out: t½* (converted)
Entries and their half-life values follow.
readout type: half-life

{"columns": ["compound", "readout type", "result"],
 "data": [
  ["O=C(O)c1ccc(C2(NC(=O)c3cc(Cl)cnc3N3CC(Oc4cccc(F)c4)C3)CC2)cc1 [E 16]", "half-life", "5.62 h"],
  ["O=C(O)c1ccc(C2(NC(=O)c3cc(Cl)cnc3N3CC(Oc4ccccc4)C3)CC2)cc1 [E 10]", "half-life", "3.96 h"]
]}

---

test protocol: Pharmacokinetics in male Han Wistar rats, intravenous and oral
Assay type: in vivo
applied conditions: male, Han Wistar, plasma; rat, PO, 2.0 mg/kg

{"columns": ["item smiles", "Cmax, ng/mL"],
 "data": [
  ["O=C(O)c1ccc(C2(NC(=O)c3cc(Cl)cnc3N3CC(Oc4cccc(F)c4)C3)CC2)cc1", 1800],
  ["O=C(O)c1ccc(C2(NC(=O)c3cc(Cl)cnc3N3CC(Oc4ccccc4)C3)CC2)cc1", 923]
]}

---

measurement target: human EP4 receptor (Homo sapiens, UniProt P35408)
Construct: expressed in transfected cells; membrane fraction used
Sequence (P35408 whole entry): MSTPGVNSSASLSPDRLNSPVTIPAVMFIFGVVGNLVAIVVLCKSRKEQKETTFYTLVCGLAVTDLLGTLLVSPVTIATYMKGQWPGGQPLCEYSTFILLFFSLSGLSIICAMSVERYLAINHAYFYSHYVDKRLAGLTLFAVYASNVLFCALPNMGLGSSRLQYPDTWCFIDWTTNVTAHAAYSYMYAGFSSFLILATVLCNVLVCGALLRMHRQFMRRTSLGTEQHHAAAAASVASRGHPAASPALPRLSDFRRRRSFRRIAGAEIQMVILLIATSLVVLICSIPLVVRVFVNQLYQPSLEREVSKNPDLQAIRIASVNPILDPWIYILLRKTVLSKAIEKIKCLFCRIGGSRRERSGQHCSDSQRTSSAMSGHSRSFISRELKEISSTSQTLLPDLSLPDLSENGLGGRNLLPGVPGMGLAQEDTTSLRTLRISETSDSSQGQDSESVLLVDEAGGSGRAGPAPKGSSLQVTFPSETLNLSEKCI
test protocol: [3H]-Prostaglandin E2 membrane binding assay (human EP4/HEK293 transfectant membranes)
applied conditions: [3H]-PGE2 1 nM, hEP4/HEK293 membranes; Ki by Cheng-Prusoff; read-out: Binding pKi (converted)
readout type: log10(Ki) (log10 of the value in nM)

{"columns": ["compound", "measurement target", "numeric value"],
 "data": [
  ["O=C(O)c1ccc(C2(NC(=O)c3cc(Cl)cnc3N3CC(Oc4ccc(C(F)(F)F)cc4)C3)CC2)cc1", "human EP4 receptor (Homo sapiens, UniProt P35408)", 1.40],
  ["O=C(O)c1ccc(C2(NC(=O)c3cc(Cl)cnc3N3CC(Oc4ccc(F)c(C(F)(F)F)c4)C3)CC2)cc1", "human EP4 receptor (Homo sapiens, UniProt P35408)", 1.30],
  ["O=C(O)c1ccc(C2(NC(=O)c3cc(Cl)cnc3N3CC(Oc4ccc(F)cc4F)C3)CC2)cc1", "human EP4 receptor (Homo sapiens, UniProt P35408)", 1.70],
  ["O=C(O)c1ccc(C2(NC(=O)c3cc(Cl)cnc3N3CC(Oc4cccc(C(F)(F)F)c4)C3)CC2)cc1", "human EP4 receptor (Homo sapiens, UniProt P35408)", 0.70],
  ["O=C(O)c1ccc(C2(NC(=O)c3cc(Cl)cnc3N3CCC(Oc4ccc(F)cc4)C3)CC2)cc1 (single isomer, unassigned) [E 66]", "human EP4 receptor (Homo sapiens, UniProt P35408)", 1.60],
  ["O=C(O)c1ccc(C2(NC(=O)c3cc(Cl)cnc3N3CCC(Oc4ccccc4)C3)CC2)cc1 (single isomer, unassigned) [E 60]", "human EP4 receptor (Homo sapiens, UniProt P35408)", 1.90],
  ["O=C(O)c1ccc(C2(NC(=O)c3cc(C(F)(F)F)cnc3N3CC(Nc4ccc(F)cc4F)C3)CC2)cc1", "human EP4 receptor (Homo sapiens, UniProt P35408)", 1.30]
]}

Value source: patent US8828987B2
